System: L. donovani-infected THP-1 macrophages, intracellular amastigote imaging
Experiment: antileishmanial activity in infected THP-1 macrophages – imaging, THP-1 host macrophages, host toxicity (AID 1159564)
Conditions: measured here: THP-1 host cell toxicity
pIC50: −log10 of the molar value.
property-measured: pIC50

1) CC1CN(Cc2ccc(C#N)cc2)CCN1c1ccc(NC(=O)c2ccccc2F)cc1 (configuration not stated); < 4.30
2) CC(=O)Nc1ccc(-c2noc(CC3CCCN(Cc4cccc(F)c4C)C3)n2)cc1 (configuration not stated); < 4.30
3) CCCCN(C(=O)c1ccc(NC(=O)C(C)C)cc1)c1ccccc1; < 4.30
4) Cc1cccc(NS(=O)(=O)c2ccc3c(c2)C(=O)c2cc(S(=O)(=O)Nc4cccc(C)c4C)ccc2-3)c1C; < 4.30
5) Cc1nn(-c2nc3ccccc3s2)c2c1C(c1ccc(OCC(N)=O)cc1)SCC(=O)N2 (configuration not stated); < 4.30
6) Cn1c(CC(=O)NNC(=O)c2ccc3ccccc3n2)nc2ccccc21; < 4.30
7) CNc1c(C(N)=O)c(-c2ccc3scnc3c2)nn1CC(F)(F)F; < 4.30
8) Cc1nc(C(=O)Nc2ccc3c(c2)OCO3)nn1-c1ccc(F)cc1; < 4.30
9) O=C(NCc1nnc2n1CCCCC2)c1csc(-c2ccccc2)n1; < 4.30
10) CCC(CC)C(=O)Nc1ccc(-c2nnc(-c3ccc(OC)cc3)o2)cc1; < 4.30
11) Cn1nc([N+](=O)[O-])nc1Oc1ccc(C(=O)c2ccccc2)cc1; < 4.30
12) COc1cc(OC)cc(C(=O)N[C@@H](CC(C)C)C(=O)NC2(C#N)CC2)c1; < 4.30
13) COc1ccc2ncc(=O)n(CCN3CC[C@H](NCc4ncc(Cl)c5[nH]ncc45)[C@H](O)C3)c2n1; < 4.30
14) COc1cc(-c2noc(CC#N)n2)ccc1OC(F)F; 4.30
15) CS(=O)(=O)c1cccc(CNC(=O)c2cncc(N3CCN(c4ccc(F)cc4)CC3)c2)c1; < 4.30
16) O=C(NCC1CCCCC1)c1cc(=O)c2ccccc2o1; > 4.30
17) COc1ccc(-c2csc(NC(=O)c3ccc([N+](=O)[O-])s3)n2)cc1; < 4.30
18) c1ccc(CCNCc2cncc3nc(-c4cnccn4)n(C4CCCCC4)c23)cc1; < 4.30
19) CC1CCCN(S(=O)(=O)c2ccc(C(=O)Nc3nc(-c4ccccn4)cs3)cc2)C1 (configuration not stated); 5.30
20) Cc1c(C(C)NC(=O)Nc2cccc(Cl)c2)sc2ncnn12 (configuration not stated); < 4.30
21) O=C(Cc1ccccc1)Nc1[nH]nc2sc(C(=O)NC3CCCC3)cc12; 5.80
22) Nc1cc(-c2ccc3ncnc(N4CCOCC4)c3c2)cnc1N; < 4.30
23) CC(C)c1nn(-c2nc(N)nc(-c3ccccn3)n2)c(N)c1C1CCCCC1; 5.30
24) Cc1cc(NC(=O)c2ccc([N+](=O)[O-])s2)ccc1Br; 4.80
25) Cc1cc(NC(=O)CC2CCCCC2)n(-c2nc3c(c(=O)[nH]2)CCC3)n1; 5.40
26) CN(C)c1ccc(N)cc1CN(CC1CCCO1)S(C)(=O)=O (configuration not stated); < 4.30
27) CN1C(=O)c2ccccc2Sc2ccc(NC(=O)NCc3ccco3)cc21; < 4.30
28) Cc1ccc(Nc2nc(-c3ccccn3)cc(N3CCCC(O)C3)n2)cc1 (configuration not stated); 4.60
29) N#CN1CC[C@@H](NC(=O)Nc2ccccc2Oc2ccccc2)C1; 4.60
30) Cc1ccc(Nc2nc(N)nc(CNC(c3nc4ccccc4[nH]3)C(C)C)n2)cc1 (configuration not stated); 4.60
31) O=c1[nH]c(C=Cc2cccc(OCCOc3ccccc3)c2)nc(O)c1[N+](=O)[O-]; < 4.30
32) O=C(c1ccc(OCCCc2cnc[nH]2)cc1)C1CC1; < 4.30
